Please provide measured MIC90 for the entries that follow.
# System: M. tuberculosis strains
# Test Description: Minimum Inhibitory Concentration (MIC) against M. tuberculosis strains, resazurin microtiter plate assay
# Format: cell-based, Mycobacterium tuberculosis
# Conditions Used: Mycobacterium tuberculosis
Write the number in µM without appending the unit.

// sample Cc1cc2nccc(-c3ccccc3C(=O)O)c2c(C)c1-c1ccc(CN2CCOCC2)cc1 [Compound 57] , its MIC90 was 40

Measured MIC90, Cc1cc2nc(C(=O)NCCF)cc(-c3ccccc3Cl)c2c(C)c1-c1ccncc1 [Compound 31] : 1.25

# MIC90 (compound: Cc1cccc(C)c1-c1ccnc2cc(C)c(-c3ccc(CN4CCOCC4)cc3)c(C)c12 [Compound 58] ) is 5

Lab book: MIC90 of Cc1cc2nccc(-c3ccccc3Cl)c2c(C)c1-c1ccc(CN2CCOCC2)cc1 [Compound 48] noted as 0.3

Reported MIC90 for CNC(=O)c1cc(-c2ccc(Cl)cc2)c2c(C)c(-c3ccncc3)c(C)cc2n1 [Compound 67] was 40

So for Cc1cc2nccc(-c3ccccc3)c2c(C)c1-c1ccc(CN2CCOCC2)cc1 [Compound 47] , the logged MIC90 turned out to be 0.45

Quick note, MIC90 for Cc1cc2nccc(-c3cccnc3C#N)c2c(C)c1-c1ccc(CN2CCOCC2)cc1 [Compound 62] landed at 7.5

Entry CNC(=O)c1cc(N2CCCCC2)c2c(C)c(-c3ccncc3)c(C)cc2n1 [Compound 69] ; MIC90 = 5

GET /value?item= CNC(=O)c1cc(-c2ccccc2F)c2c(C)c(C3=CCC(CO)CC3)c(C)cc2n1 (stereo not shown) [Compound 91] &field=MIC90 returns 0.6

MIC90 for Cc1cc2nccc(-c3ccnn3C)c2c(C)c1-c1ccc(CN2CCOCC2)cc1 [Compound 63] is 2.2

The recorded MIC90 for entry Cc1cc2nccc(-c3ccccc3)c2c(C)c1-c1cnn(C)c1 [Compound 77] equals 47

The value of MIC90 measured for the compound CNC(=O)c1cc(-c2cccc(Cl)c2)c2c(C)c(-c3ccncc3)c(C)cc2n1 [Compound 66] turned out to be 2.5

MIC90 measured on Cc1cc2nccc(-c3ccccc3)c2c(C)c1-c1ccnn1C [Compound 76] = 47

Recorded MIC90 (compound CNC(=O)c1cc(-c2ccccc2F)c2c(C)c(C3=CCNCC3)c(C)cc2n1 [Compound 86] ): 20

Lab book: MIC90 of Cc1cc2nccc(-c3ccc(Cl)cc3)c2c(C)c1-c1ccc(CN2CCOCC2)cc1 [Compound 50] noted as 80

The compound Cc1cc2nccc(-c3cccc(Cl)c3)c2c(C)c1-c1ccc(CN2CCOCC2)cc1 [Compound 49] showed MIC90 equal to 0.6

In plain terms, CNC(=O)c1cc(-c2ccccc2F)c2c(C)c(-c3ccoc3)c(C)cc2n1 [Compound 80] has a documented MIC90 of 0.6
